Would you mind telling me the reported Concentration of IgE in serum of each entry?
Test system: mouse asthma model induced by OVA
Assay: Asthma induced by ovalbumin in Balb/c mice: IgE level in serum by ELISA
Type: in vivo
Conditions: Table 1-2 (2nd time); 60 mg/kg, oral
Express it in ng/mL; write the number only.

Consider CC(C)=CCC[C@](C)(O[C@@H]1O[C@H](CO)[C@@H](O)[C@H](O)[C@H]1O)[C@H]1CC[C@]2(C)[C@@H]1[C@H](O)C[C@@H]1[C@@]3(C)CC[C@H](O)C(C)(C)[C@@H]3CC[C@]12C [CK, ginsenoside compound K, reference compound] . Its measured Concentration of IgE in serum is 1501.85

Consider CC(C)=CCC[C@](C)(O[C@@H]1OC(CO)[C@@H](O)[C@H](O)C1O)C1CC[C@]2(C)C1C(=O)CC1[C@@]3(C)CC=CC(C)(C)C3CC[C@]12C (stereo partly shown) . Its measured Concentration of IgE in serum is 1150.59

Consider CC(C)=CCC[C@](C)(O[C@@H]1OC(CO)[C@@H](O)[C@H](O)C1O)C1CC[C@]2(C)C1C(=O)CC1[C@@]3(C)CC[C@H](O)C(C)(C)C3CC[C@]12C (stereo partly shown) . Its measured Concentration of IgE in serum is 1769.13

Consider CC(C)=CCC[C@](C)(O[C@@H]1OC(C)[C@H](O)[C@H](O)C1O)C1CC[C@]2(C)C1[C@H](O)CC1[C@@]3(C)CC[C@H](O)C(C)(C)C3CC[C@]12C (stereo partly shown) . Its measured Concentration of IgE in serum is 1217.43

Where do the numbers come from? From patent US11866458B2.
